tested on: Escherichia coli TOP10; experiment: shrunken log2 fold change of peptide-encoding DNA abundance (4.5 h post-induction vs induction); higher = less antimicrobial activity (less host growth inhibition); conditions: time post-induction: 4.5 h; library: site-saturation at positions 5, 18, 19, 20
property label: shrunken log2 fold change
Note: the reply should be a number with no unit written.

{"columns": ["residue sequence", "target desc", "shrunken log2 fold change"],
 "data": [
  ["RRIRWRPPRLPRPRPRPFMMPRP", "Escherichia coli TOP10", -0.587],
  ["RRIRLRPPRLPRPRPRPLLGPRP", "Escherichia coli TOP10", 0.0797]
]}

Find the measured shrunken log2 fold change: item RRIRYRPPRLPRPRPRPKFEPRP , target or system Escherichia coli TOP10.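 Further: peptides expressed intracellularly from a pBAD plasmid library in pooled LB shake-flask culture, induced with 0.3% L-arabinose, DNA abundance read by NGS, three biological replicates, DESeq2 with apeglm shrinkage.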
-0.0286
